In this section, each of the compounds is paired with its reported IC50.
Molecular target: human Edg-2 receptor (LPA1 receptor) (Homo sapiens)
Sequence (Q92633 whole entry): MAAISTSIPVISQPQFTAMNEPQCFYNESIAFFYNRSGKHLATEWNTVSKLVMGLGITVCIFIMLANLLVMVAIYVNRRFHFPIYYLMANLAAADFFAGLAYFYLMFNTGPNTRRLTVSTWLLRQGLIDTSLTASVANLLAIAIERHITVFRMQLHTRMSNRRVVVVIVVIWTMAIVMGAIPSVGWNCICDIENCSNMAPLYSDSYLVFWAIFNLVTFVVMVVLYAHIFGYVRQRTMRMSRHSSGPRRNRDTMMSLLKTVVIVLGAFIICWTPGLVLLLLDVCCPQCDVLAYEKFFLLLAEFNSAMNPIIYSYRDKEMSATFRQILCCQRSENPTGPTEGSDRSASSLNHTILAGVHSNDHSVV
Experiment: Edg-2 receptor inhibition by FLIPR calcium fluorescence measurement (LPA-mediated calcium liberation)
Conditions: CHO cells stably overexpressing human Edg-2 receptor; LPA 18:1 100 nM; fluo-4 fluorescence; triplicate; read-out: Inhibitory concentrations IC50 for inhibition of the Edg-2 receptor
Readout: IC50

• CCCOc1ccc(-c2cc(C(=O)NC3(C(=O)O)Cc4ccccc4C3)ccc2OC)cc1Cl = 1000 to 30000 nM
• COc1ccc(C(=O)NC2(C(=O)O)Cc3ccccc3C2)cc1OCc1ccc(N2CCCC2)nc1 = 1000 to 30000 nM
• COc1ccc(C(=O)NC2(C(=O)O)Cc3ccccc3C2)cc1COCc1cccc(C)c1 = 100 to 1000 nM
• COc1ccc(C(=O)NC2(C(=O)O)Cc3ccccc3C2)cc1OS(=O)(=O)c1ccccc1C = 1000 to 30000 nM
• COc1ccc(C(=O)NC2(C(=O)O)Cc3ccccc3C2)cc1NC(=O)c1cccc(F)c1 = 1000 to 30000 nM
• COc1ccc(C(=O)NC2(C(=O)O)Cc3ccccc3C2)cc1-c1cc(F)cc(OC(C)C)c1 = < 100 nM
• COc1ccc(C(=O)NC2(C(=O)O)Cc3ccccc3C2)cc1OCCc1cccc(S(C)(=O)=O)c1 = 1000 to 30000 nM
• COc1ccc(C(=O)NC2(C(=O)O)Cc3ccccc3C2O)cc1OCCc1cccc(C)c1 (single isomer, unassigned) = < 100 nM
• COc1ccc(C(=O)NC2(C(=O)O)Cc3ccccc3C2)cc1-c1ccc(OC(C)C)c(C)c1 = 1000 to 30000 nM
• COc1ccc(C(=O)NC2(C(=O)O)Cc3ccccc3C2)cc1OCC(C)c1ccccc1 (stereo not shown) = < 100 nM
• COc1ccc(C(=O)NC2(C(=O)O)Cc3ccccc3C2)cc1OCC1CC=CCC1 (stereo not shown) = 100 to 1000 nM
• COc1ccc(C(=O)NC2(C(=O)O)Cc3ccccc3C2)cc1-c1cccc(OCc2ccccc2)c1 = 100 to 1000 nM
• COc1ccc(C(=O)NC2(C(=O)O)Cc3ccccc3C2)cc1OCC(F)(F)c1ccccc1 = < 100 nM
• CC(=O)c1sc(C(=O)NC2(C(=O)O)Cc3ccccc3C2)cc1OCCc1cccc(C)c1 = 100 to 1000 nM
• COc1cc(C(=O)NC2(C(=O)O)Cc3ccccc3C2)ccc1OCCc1ccccc1Cl = 1000 to 30000 nM
• COc1ccc(C(=O)NC2(C(=O)O)Cc3ccccc3C2)cc1OCCc1c[nH]c2ccccc12 = 1000 to 30000 nM
• COc1ccc(C(=O)NC2(C(=O)O)Cc3ccccc3C2)cc1OCc1ccc(C(C)(C)C)cc1 = 1000 to 30000 nM
• CC[C@H](COc1cc(C(=O)NC2(C(=O)O)Cc3ccccc3C2)ccc1OC)N1Cc2ccccc2C1 = 1000 to 30000 nM
• COc1ncc(C(=O)NC2(C(=O)O)Cc3ccccc3C2)cc1-c1cccc(C#N)c1 = < 100 nM
• COc1ccc(C(=O)NC2(C(=O)O)Cc3ccccc3C2)cc1OCCCC1CC(c2ccccc2)=NO1 (stereo not shown) = 1000 to 30000 nM
• COc1ccccc1CCOc1cc(C(=O)NC2(C(=O)O)Cc3ccccc3C2)ccc1OC = 1000 to 30000 nM
• COc1cc([N+](=O)[O-])c(C(=O)NC2(C(=O)O)Cc3ccccc3C2)cc1OCCc1cccc(Cl)c1 = 1000 to 30000 nM
• COc1ccc(C(=O)NC2(C(=O)O)Cc3ccccc3C2)cc1C#Cc1ccc(C(F)(F)F)cc1 = 1000 to 30000 nM
• COc1cc(C(=O)NC2(C(=O)O)Cc3ccccc3C2)ccc1OCCc1cccc(C)c1 = 100 to 1000 nM
• COc1ccc(C(=O)NC2(C(=O)O)Cc3ccccc3C2)cc1OCC(C)(C)C = 1000 to 30000 nM
